Cited source: ChEMBL document CHEMBL4270581

Target desc: Enoyl-[acyl-carrier-protein] reductase [NADH] (Mycobacterium tuberculosis)
Sequence (whole entry): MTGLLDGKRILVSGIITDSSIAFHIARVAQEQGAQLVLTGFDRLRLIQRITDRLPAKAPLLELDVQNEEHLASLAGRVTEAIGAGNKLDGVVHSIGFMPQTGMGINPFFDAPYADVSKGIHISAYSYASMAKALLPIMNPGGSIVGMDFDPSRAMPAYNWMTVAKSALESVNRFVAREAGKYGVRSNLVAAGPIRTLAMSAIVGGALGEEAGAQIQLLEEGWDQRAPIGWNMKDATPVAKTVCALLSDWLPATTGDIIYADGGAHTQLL
Test name: Inhibition of replicating Mycobacterium tuberculosis H37Rv InhA assessed as cell growth inhibition after 7 days by MABA method
Catalogue of MIC readings, one per entry.
Quantity kind: MIC

INSERT INTO results (test_smiles, result) VALUES
  ('COc1ccc(C(=O)NNC(=O)[C@H](Cc2ccc(O)cc2)NC(=O)c2ccc(-c3ccc(OC)cc3)o2)cc1', '0.78 µg/mL'),
  ('CSc1ccc(-c2ccc(C(=O)NNC(=O)c3ccc(O)cc3)o2)cc1', '0.78 µg/mL'),
  ('CC(C)(C)c1ccc(C(=O)NNC(=O)[C@H](Cc2ccc(O)cc2)NC(=O)c2ccc(Br)o2)cc1', '3.12 µg/mL'),
  ('CC[C@@H](CO)NCCN[C@@H](CC)CO', '1.56 µg/mL'),
  ('CSc1ccc(-c2ccc(C(=O)NNC(=O)c3ccc(C(C)(C)C)cc3)o2)cc1', '6.25 µg/mL'),
  ('O=C(NNc1nc2ccccc2s1)c1ccc(-c2ccccc2)o1', '25 µg/mL'),
  ('CO[C@H]1/C=C/O[C@@]2(C)Oc3c(C)c(O)c4c(O)c(c(/C=N/N5CCN(C)CC5)c(O)c4c3C2=O)NC(=O)/C(C)=C\C=C\[C@H](C)[C@H](O)[C@@H](C)[C@@H](O)[C@@H](C)[C@H](OC(C)=O)[C@@H]1C', '0.2 µg/mL'),
  ('Cc1ccc(C(=O)NNC(=O)[C@H](Cc2ccc(O)cc2)NC(=O)c2ccc(-c3ccccc3)o2)cc1', '12.5 µg/mL'),
  ('Cc1ccc(C(=O)NNC(=O)c2ccc(-c3ccccc3S(C)(=O)=O)o2)cc1', '3.12 µg/mL'),
  ('O=C(NNC(=O)[C@H](Cc1ccc(O)cc1)NC(=O)c1ccc(Br)o1)c1ccc(Cl)cc1', '12.5 µg/mL'),
  ('NNC(=O)c1ccncc1', '0.1 µg/mL'),
  ('O=C(NNC(=O)[C@H](Cc1ccc(O)cc1)NC(=O)c1ccc(-c2ccc(F)cc2)o1)c1ccc(Br)cc1', '25 µg/mL'),
  ('COc1ccc(C(=O)NNC(=O)c2ccc(-c3ccc(SC)cc3)o2)cc1', '0.78 µg/mL'),
  ('O=C(NNC(=O)[C@H](Cc1ccc(O)cc1)NC(=O)c1ccc(-c2ccccc2)o1)c1ccc(Br)cc1', '0.78 µg/mL'),
  ('CSc1ccc(-c2ccc(C(=O)NNC(=O)c3ccc(F)cc3)o2)cc1', '0.39 µg/mL'),
  ('CSc1ccc(-c2ccc(C(=O)NNC(=O)c3ccco3)o2)cc1', '6.25 µg/mL'),
  ('COc1ccc(C(=O)NNC(=O)c2ccc(-c3ccccc3SC)s2)cc1', '> 25 µg/mL'),
  ('O=C(NNC(=O)[C@H](Cc1ccc(O)cc1)NC(=O)c1ccc(-c2ccc(F)cc2)s1)c1ccc(F)cc1', '6.25 µg/mL'),
  ('CSc1ccc(-c2ccc(C(=O)NNC(=O)c3ccccc3F)o2)cc1', '6.25 µg/mL'),
  ('COc1ccc(C(=O)NNC(=O)[C@H](Cc2ccc(O)cc2)NC(=O)c2ccc(-c3ccc(F)cc3)s2)cc1', '1.56 µg/mL'),
  ('COc1ccccc1C(=O)NNC(=O)c1ccc(-c2ccc(SC)cc2)o1', '12.5 µg/mL'),
  ('CC(C)(C)c1ccc(C(=O)NNC(=O)[C@H](Cc2ccc(O)cc2)NC(=O)c2ccc(-c3ccccc3)o2)cc1', '0.78 µg/mL'),
  ('O=C(NNC(=O)[C@H](Cc1ccc(O)cc1)NC(=O)c1ccc(-c2ccc(F)cc2)s1)c1ccc(Cl)cc1', '0.78 µg/mL'),
  ('COc1ccc(C(=O)NNC(=O)[C@H](Cc2ccc(O)cc2)NC(=O)c2ccc(Br)o2)cc1', '> 25 µg/mL'),
  ('O=C(NNC(=O)[C@H](Cc1ccc(O)cc1)NC(=O)c1ccc(Br)o1)c1ccc(F)cc1', '> 25 µg/mL'),
  ('O=C(N[C@@H](Cc1ccc(O)cc1)C(=O)NNC(=O)c1ccccc1F)c1ccc(-c2ccc(F)cc2)s1', '> 25 µg/mL');
